B1: HDV Ribozyme (parent)
chain: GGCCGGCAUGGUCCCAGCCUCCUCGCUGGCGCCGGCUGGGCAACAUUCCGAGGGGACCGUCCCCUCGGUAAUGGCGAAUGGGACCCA

- Variants of: B1
- assayName: self-cleavage, relative activity (ratio to wild type); higher = more cleavage; co-transcriptional
Mark NOT MET for self-cleavage values under 0.4, and MET for everything at or above.

INSERT INTO assay_data (residuestring, discretelabel) VALUES
  ('GGCCGGGAUGGUCCCAGCCUCCUCGCUGGCGCCGGCUGGGCAACAUUCCGAGAGGACCGUCCCCUCGGUAAUGGCGAAUGGGACCCA [C7G G53A]', 'NOT MET'),
  ('GGUCGGCAAGGUCCCAGCCUCCUCGCUGGCGCCGGCUGGGCAACAUUCCGAGGGGACCGUCCCCUCGGUAAUGGCGAAUGGGACCCA [C3U U9A]', 'MET'),
  ('GGUCGGCAUGGUCCCAGCCUCCUCACUGGCGCCGGCUGGGCAACAUUCCGAGGGGACCGUCCCCUCGGUAAUGGCGAAUGGGACCCA [C3U G25A]', 'NOT MET'),
  ('GGCCGGCAUGAUCCCAGCCUCUUCGCUGGCGCCGGCUGGGCAACAUUCCGAGGGGACCGUCCCCUCGGUAAUGGCGAAUGGGACCCA [G11A C22U]', 'NOT MET'),
  ('GGCCGGCAUGGUCCCAGCCUCCUCGCUGGCGCCGGCUGGGCAACAUUCCGAGGGGACGGUCCCCUCGGUAAUUGCGAAUGGGACCCA [C58G G73U]', 'NOT MET'),
  ('GGGCGGCAUGGUCCCAGCCUCCUCGCUGGCGCCGGCUGGGCAACAUUCCGAGGGGACCGUCCCCUGGGUAAUGGCGAAUGGGACCCA [C3G C66G]', 'MET'),
  ('CGCCGGCAUGGUCCCAGCCUCCUCGCUGGCGCCGGCUGGGCAACAUUCCGAGGGGACCGUCCCCUCGGUAAUGGCGAAUGUGACCCA [G1C G81U]', 'NOT MET'),
  ('GGCCGGCAUGGUCCCAUCCUCCUCGCUGGCGCCGGCUGGGCAACAUUACGAGGGGACCGUCCCCUCGGUAAUGGCGAAUGGGACCCA [G17U C48A]', 'MET'),
  ('GGCCGGCAUGGUCCCAGCCUCCUCGCUGGGGUCGGCUGGGCAACAUUCCGAGGGGACCGUCCCCUCGGUAAUGGCGAAUGGGACCCA [C30G C32U]', 'NOT MET'),
  ('GGCCGGCAUGGUCCCAGCCUCCUCGCUGGCGCCGGCUGGGCAAAAUUCCGAGGGGACCGACCCCUCGGUAAUGGCGAAUGGGACCCA [C44A U60A]', 'MET'),
  ('GGCCGGCAUGGUCCCAGCCUCCUCGCUGGCGCCGGCUGGGCAACAUUCCGAGGGGACCGUUCCCUCGGUUAUGGCGAAUGGGACCCA [C61U A70U]', 'MET'),
  ('GGCCGGCAUGGUCCCAGCCUCCUCGCUGGCGCCGGCUGGGCAACAUUCCGAGGGGACCGUCCCCGCGGUAAUGGCGAAUGAGACCCA [U65G G81A]', 'NOT MET'),
  ('GGCCGGCAUGGUCACAGCCUCCUCGCUGGCGGCGGCUGGGCAACAUUCCGAGGGGACCGUCCCCUCGGUAAUGGCGAAUGGGACCCA [C14A C32G]', 'NOT MET'),
  ('GGCCGGCAUGGUCCCAGCCUCCUCGCUGGCGCCGGCUGGGCAACAUUCCGAGGGGACCAUCCCCUCGGUAAUGGCGAAAGGGACCCA [G59A U79A]', 'MET'),
  ('GGCCGGCAUGGUCCCAGCCUCCUCGCUGGCGCCGGCUGGGCAACAUUCCGAGGGGACCGUCCCCUCGGUAAUGACGAAUGGAACCCA [G74A G82A]', 'NOT MET'),
  ('GGCCGGCAUGGUCCCAGCCUCCUCGCUGGCGCCGGCCGGACAACAUUCCGAGGGGACCGUCCCCUCGGUAAUGGCGAAUGGGACCCA [U37C G40A]', 'MET'),
  ('GGCCGGCAUGGUCCCAGCCUCCUCGCUGGCGCCAGCUGGGCAACAUUCCGAGGGGACCGUCCCCUCGGUAAAGGCGAAUGGGACCCA [G34A U72A]', 'NOT MET'),
  ('GGCCGGCAUGGUCCCAGCCUCCUCGUUGGCGCCGGCCGGGCAACAUUCCGAGGGGACCGUCCCCUCGGUAAUGGCGAAUGGGACCCA [C26U U37C]', 'MET'),
  ('GGCCGGCAUGGACCGAGCCUCCUCGCUGGCGCCGGCUGGGCAACAUUCCGAGGGGACCGUCCCCUCGGUAAUGGCGAAUGGGACCCA [U12A C15G]', 'NOT MET'),
  ('GGCCGGCAUGGUCCCAGCCUCCUCGCUGGCGCCGGCUGGGCAACAUUUCGAGGGGACCGUCCCAUCGGUAAUGGCGAAUGGGACCCA [C48U C64A]', 'MET'),
  ('GGCCGGCACGGUCCCAGCCUCCUCGCUGGCGCCGGCUGGGCAACAUUCCGAGGGGACCGUCACCUCGGUAAUGGCGAAUGGGACCCA [U9C C62A]', 'MET'),
  ('GGCCGGCAUGGUCCCACCCUCCUCGCUGGCGCCGGCUGGGCAACAUUUCGAGGGGACCGUCCCCUCGGUAAUGGCGAAUGGGACCCA [G17C C48U]', 'NOT MET'),
  ('GGCCGGCAUGGUCCCAGCCUCCUCGCUGGCGCUGGCUGGGCAACAUUACGAGGGGACCGUCCCCUCGGUAAUGGCGAAUGGGACCCA [C33U C48A]', 'MET'),
  ('GGCCGGCAUGGUCCCAGCCUCCUCGCUGGCGCCGGCUGGGCAACAUUCAGAGGUGACCGUCCCCUCGGUAAUGGCGAAUGGGACCCA [C49A G54U]', 'MET'),
  ('GGCCGUCAUCGUCCCAGCCUCCUCGCUGGCGCCGGCUGGGCAACAUUCCGAGGGGACCGUCCCCUCGGUAAUGGCGAAUGGGACCCA [G6U G10C]', 'NOT MET'),
  ('CGCCGGCAUGGUCCCAGCCUCCUCGCUGGCGCCGGCUGGGCAACAUUCCGAGGGGACCGUCCCCUCGGUAAUGGCGAAUGGGACGCA [G1C C85G]', 'NOT MET'),
  ('GGCCGGCAUGGUCCCAGCCUCCUCGCUGGCGCCGGCUGGACUACAUUCCGAGGGGACCGUCCCCUCGGUAAUGGCGAAUGGGACCCA [G40A A42U]', 'MET'),
  ('UGCCGGCAUGGUCCCAGCCUCCUCGCUGGCGCCGGCUGGGCAACAGUCCGAGGGGACCGUCCCCUCGGUAAUGGCGAAUGGGACCCA [G1U U46G]', 'NOT MET'),
  ('GGCCGGCAUGGUCCCAGCCUCCUCGCUGGCGCCGGCUGCGCAACAUUCCGAGGGGACCGUCCCCUCGGUAAUGGCGAAAGGGACCCA [G39C U79A]', 'NOT MET'),
  ('GGCCGGCAUGGUCCCAGCCUGCUCGCUGGCGUCGGCUGGGCAACAUUCCGAGGGGACCGUCCCCUCGGUAAUGGCGAAUGGGACCCA [C21G C32U]', 'NOT MET'),
  ('GGCCGGCAUGGUCCCUGCCUCCUCGCUGGCGCCGGUUGGGCAACAUUCCGAGGGGACCGUCCCCUCGGUAAUGGCGAAUGGGACCCA [A16U C36U]', 'MET'),
  ('GGCCGGCAUGGUCCCAGCCUCCUCGCUGGCGCCGGCUGGCCCACAUUCCGAGGGGACCGUCCCCUCGGUAAUGGCGAAUGGGACCCA [G40C A42C]', 'NOT MET'),
  ('GGCCGGCAUGGUCCCAGCCUCGUCGCUGGCGCCGGCUGGGCAACAUUCCGAGGGGACCGUCCCCUCGGUAAUGGCGAAUGGGACGCA [C22G C85G]', 'NOT MET'),
  ('GGCCGGCAUGGUCCCAGCCUCCUCGCUGGCGCCGGCUGGGCAACAUUCCGAGGGGACCGUGCCCUCGGUAAUGGCGAAGGGGACCCA [C61G U79G]', 'MET'),
  ('GGCCGGCAUGGUCCCAGCCCCCUCGCUGGCGCCGGCUGGGCAACUUUCCGAGGGGACCGUCCCCUCGGUAAUGGCGAAUGGGACCCA [U20C A45U]', 'NOT MET'),
  ('GGCCGGCAUGGUCCCACCCUCCUCGCUGGCGCCGGCUGGGCAACAUUCCGAGGGGACCGCCCCCUCGGUAAUGGCGAAUGGGACCCA [G17C U60C]', 'NOT MET'),
  ('GUGCGGCAUGGUCCCAGCCUCCUCGCUGGCGCCGGCUGGGCAACAUUCCGAGGGGACCGUCCCCUCGGUAAUGGCGAAUGGGACCCA [G2U C3G]', 'NOT MET'),
  ('GGCCGGCAUGGUCUCAGCCUCCUCGCUGGCGCCGGCUGGGCAACAUUCCGAGGGGACCGUCCCCUCGCUAAUGGCGAAUGGGACCCA [C14U G68C]', 'MET'),
  ('GGCCGGCAUGGUCCCAGUCUCCUCGCUGGCGCCGGCUGGGCAACAUUCCGAGGGGACCGUCCCCUCGGUAAUUGCGAAUGGGACCCA [C18U G73U]', 'NOT MET'),
  ('GGCCGGCAUGGUCCCAGCCUCCUCUCUGGCGCCGGCUGGGCAACAUUCCGAGGGGACCGACCCCUCGGUAAUGGCGAAUGGGACCCA [G25U U60A]', 'NOT MET'),
  ('GGCCGGCAUGGUCCCAUCCUCCUCGCUGGCGCCGGCUGGGCAACAUUCCGAGGGGACCGUCCCCUCGGUAUUGGCGAAUGGGACCCA [G17U A71U]', 'MET'),
  ('GGGCGGCAUGGUCCCAGCCUCCUCGCUGGCGCCGGCUGGGCAACAUUCCGAGGGGACCGUCCCCUCGGUAAUGGAGAAUGGGACCCA [C3G C75A]', 'NOT MET'),
  ('GGCCGGCAUGGUCCCAGCCUCCCCGCUGGCGACGGCUGGGCAACAUUCCGAGGGGACCGUCCCCUCGGUAAUGGCGAAUGGGACCCA [U23C C32A]', 'NOT MET'),
  ('GGGCGGCAUGGUCCCAGCCUCCUCGCUGGCGCCAGCUGGGCAACAUUCCGAGGGGACCGUCCCCUCGGUAAUGGCGAAUGGGACCCA [C3G G34A]', 'NOT MET'),
  ('GGCCGGCAUGGUCACAGCCUCCCCGCUGGCGCCGGCUGGGCAACAUUCCGAGGGGACCGUCCCCUCGGUAAUGGCGAAUGGGACCCA [C14A U23C]', 'MET'),
  ('GGCCGGCAUGGUCACAGCCUCCUCGCUGGCGCCGGCUGGGCAACAUUCCGAGGGGACAGUCCCCUCGGUAAUGGCGAAUGGGACCCA [C14A C58A]', 'MET'),
  ('GGCCGGCAUGGUCCCACCCUCCUCGCUGGCGCCGGCUGGGCAACAUUCCGAGGGGACCGUCCCCUCGGUAAUGGCGGAUGGGACCCA [G17C A77G]', 'NOT MET'),
  ('GGCCGGCAUCGUCCCAGCCUCCUCGCUGGCGCCGGCUGGGCAACAUUCCGAGGGGACCGUCCCAUCGGUAAUGGCGAAUGGGACCCA [G10C C64A]', 'MET'),
  ('GGCCGGCAUGGUCCCAGCCUCCUCGCUGGGGCCGGCUGGGCAACAUUCCGAGGGGACCGUCCCCUCGGUAAUGGCAAAUGGGACCCA [C30G G76A]', 'NOT MET'),
  ('GGCCGGCAUGGUCCCAGCCUCCUCGCUGGCGCCGGCUGGGAAACAUUCCGAGGGGACCGUCCCCUCGGUAAUGCCGAAUGGGACCCA [C41A G74C]', 'NOT MET'),
  ('GGGCGGCAUGGUCCCAGCCUCCUCGCUGGCGCCGGCUGGGCAACAUUCCGAGGGGACCGUCCCCUCGGUAAUGGCGCAUGGGACCCA [C3G A77C]', 'NOT MET'),
  ('GGCCGGCAUGGUCCCAGCCUCCUCGCUGGCGCCGGCUGGGCAACAUUCCGAGGGGACCGUCCCCUCAGUAAUGGCGAAUGGGUCCCA [G67A A83U]', 'NOT MET'),
  ('GGCCGGCACGGUCCCAGCCUCCUCGCUGGCGCCGGCUAGGCAACAUUCCGAGGGGACCGUCCCCUCGGUAAUGGCGAAUGGGACCCA [U9C G38A]', 'NOT MET'),
  ('GGCCGGCAUGGUCCCAGCCUCCUCGCUGGCGCCGGCCGUGCAACAUUCCGAGGGGACCGUCCCCUCGGUAAUGGCGAAUGGGACCCA [U37C G39U]', 'MET'),
  ('GGCCGGCAUGGUCCCAGGCUCCUCGCUGGCGCCGGCUGGGCAACAUUCCGAGGGGACCGUCCCCUCGGUAAUGGCGAAUGGCACCCA [C18G G82C]', 'NOT MET'),
  ('GGCCGGCAUGGUCCGAGCCUCCUCGCCGGCGCCGGCUGGGCAACAUUCCGAGGGGACCGUCCCCUCGGUAAUGGCGAAUGGGACCCA [C15G U27C]', 'NOT MET'),
  ('GGCCGGCAUGGUCUUAGCCUCCUCGCUGGCGCCGGCUGGGCAACAUUCCGAGGGGACCGUCCCCUCGGUAAUGGCGAAUGGGACCCA [C14U C15U]', 'MET'),
  ('GGCCGGCAUGGUCCCAGCCUACUCGCUGGCGCCGGCUGGGCAACAUUCCGAGGGGACCGUCCCCUCGGUACUGGCGAAUGGGACCCA [C21A A71C]', 'NOT MET'),
  ('GGCCGGCAUGGUCCCAGCCUCCUCGCUUGCGCCGGCUGGGCAACAUUCCGAGGGGACCGUCCCCUCGGUGAUGGCGAAUGGGACCCA [G28U A70G]', 'NOT MET'),
  ('GGCCGGCAUGGUCCCAGCCUCCUCGCUGGCCCCGGCUGGGCAACAUUCCGAGGGGACCGUCCCCUCGGUGAUGGCGAAUGGGACCCA [G31C A70G]', 'NOT MET'),
  ('GGCCGGCAUGGUCCCAGCCUCCUCGCUGGGGCCGGCUGGACAACAUUCCGAGGGGACCGUCCCCUCGGUAAUGGCGAAUGGGACCCA [C30G G40A]', 'NOT MET'),
  ('GGCCGGUAUGGUCCCAGCCUCCUGGCUGGCGCCGGCUGGGCAACAUUCCGAGGGGACCGUCCCCUCGGUAAUGGCGAAUGGGACCCA [C7U C24G]', 'NOT MET');
